assay: in vitro; details: human, hek293t cells
MEASURED ENDPOINT: MNTC

IN: Given the entry C=O [HCHO, Formaldehyde] , report its measured MNTC.
OUT: > 200 µM

---

assay: NMR stability of HCHO adducts to HCHO scavengers and pH; type: physicochemical; settings: 40-fold excess 1,3-CHD, pD 10, analysis period 22 h
MEASURED ENDPOINT: stability of HCHO adduct to 1,3-cyclohexanedione (1,3-CHD)

[
  {
    "SMI": "O=C(O)CC[C@@H](C(=O)O)N1CN2CCCC[C@H]2C1=O",
    "REPORTED MEASUREMENT": "relatively stable"
  },
  {
    "SMI": "O=C(O)CC[C@@H](C(=O)O)N1CN2CCC[C@H]2C1=O",
    "REPORTED MEASUREMENT": "relatively stable"
  }
]

Origin of the recorded values: paper PMC9839752
